SYSTEM: T1, human claudin 6 (CLDN6) (human, UniProt P56747 1-220)
T1 construct: also called human CLDN6; hCLDN6
T1 sequence: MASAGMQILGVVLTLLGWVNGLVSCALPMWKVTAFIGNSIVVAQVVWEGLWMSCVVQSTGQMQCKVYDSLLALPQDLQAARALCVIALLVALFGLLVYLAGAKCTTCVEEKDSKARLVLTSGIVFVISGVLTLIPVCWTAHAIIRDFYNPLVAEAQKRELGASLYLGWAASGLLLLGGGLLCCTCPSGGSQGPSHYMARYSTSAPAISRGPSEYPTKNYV
EXPERIMENTAL PROTOCOL: FACS, HEK293T/human CLDN6 cells
PROPERTY LABEL: Top MFI Mean (MFI)
Hi! Could you send only the number? It should be in MFI, unit omitted.

// below: answered binders
BINDER	Top MFI Mean / MFI
BG87P-Bz3 (antibody, V domains shown) VH: QIQLVQSGAEVKKPGASVKVSCKASGYSFTDYHINWVRQAPGQRLEWMGWIYPGSGYTKYNEKFKVRVTITVDTSASTAYMELSSLRSEDTAVYFCARSGIYHYVSSYYFDHWGKGTTVTVSS VL: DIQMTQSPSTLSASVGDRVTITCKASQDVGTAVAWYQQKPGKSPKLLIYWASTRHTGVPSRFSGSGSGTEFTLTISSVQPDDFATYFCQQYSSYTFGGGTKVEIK	107000
BG87P-25 (antibody, V domains shown) VH: QIQLVQSGAEVKKPGASVKVSCKASGYSFTDYHINWVRQAPGQRLEWMGWIYPGSGYTKYNEKFKGRVTLTRDTSASTAYMELSSLRSEDTAVYYCARSGIYHYVSSYYFDHWGKGTTVTVSS VL: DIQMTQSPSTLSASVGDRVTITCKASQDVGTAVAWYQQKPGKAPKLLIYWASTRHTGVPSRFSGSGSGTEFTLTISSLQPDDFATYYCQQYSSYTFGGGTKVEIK	143000

Query: Tell me the measured Top MFI Mean of BG87P-Bz4 (antibody, V domains shown) VH: QIQLVQSGAEVKKPGASVKVSCKASGYSFTDYHINWVRQAPGQRLEWMGWIYPGSGYTKYNEKFKVRVTLTRDTSASTAYMELSSLRSEDTAVYFCARSGIYHYVSSYYFDHWGKGTTVTVSS VL: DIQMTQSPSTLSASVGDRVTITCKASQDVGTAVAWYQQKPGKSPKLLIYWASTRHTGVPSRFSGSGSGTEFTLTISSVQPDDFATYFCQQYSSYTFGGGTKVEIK , please.
Response: 110000
